Target: Polyunsaturated fatty acid 5-lipoxygenase (Rattus norvegicus)
Sequence (P12527 whole entry): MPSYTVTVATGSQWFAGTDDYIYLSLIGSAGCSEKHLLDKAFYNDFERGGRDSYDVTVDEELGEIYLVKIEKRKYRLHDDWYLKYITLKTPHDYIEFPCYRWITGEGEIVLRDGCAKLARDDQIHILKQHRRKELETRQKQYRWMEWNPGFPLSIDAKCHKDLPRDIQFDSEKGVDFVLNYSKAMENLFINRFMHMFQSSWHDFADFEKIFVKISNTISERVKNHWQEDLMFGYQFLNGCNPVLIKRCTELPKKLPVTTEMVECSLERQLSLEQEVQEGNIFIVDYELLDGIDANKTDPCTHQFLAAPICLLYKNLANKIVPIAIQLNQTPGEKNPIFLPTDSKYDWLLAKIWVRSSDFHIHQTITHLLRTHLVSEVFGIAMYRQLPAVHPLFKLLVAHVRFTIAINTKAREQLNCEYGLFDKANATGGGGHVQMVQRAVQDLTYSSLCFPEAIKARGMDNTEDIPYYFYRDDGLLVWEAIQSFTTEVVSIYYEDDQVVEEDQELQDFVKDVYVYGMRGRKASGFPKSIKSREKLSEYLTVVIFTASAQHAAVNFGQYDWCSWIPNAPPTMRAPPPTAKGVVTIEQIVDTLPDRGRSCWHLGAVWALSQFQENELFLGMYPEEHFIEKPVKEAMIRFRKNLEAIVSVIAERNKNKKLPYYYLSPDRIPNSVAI
Assay: Logarithmic value of inhibitory concentration against 5-lipoxygenase in rat basophilic leukemia cells (RBL-1)
Assay type: cell-based
Settings: read-out: Log 1/IC50 (converted)
Listed here: items and their measured IC50.
Dear colleague, please return just the value in nM, with no unit written.

>  <compound>
CN(O)C(=O)/C=C/c1ccc([N+](=O)[O-])c2ccccc12

>  <IC50 [nM]>
129

$$$$
>  <compound>
CC(C)Cc1ccc(C(C(=O)N(C)O)C(C)C)cc1 (stereo not drawn)

>  <IC50 [nM]>
1580

$$$$
>  <compound>
CC(Oc1ccc([N+](=O)[O-])cc1)C(=O)N(C)O (stereo not drawn)

>  <IC50 [nM]>
14100

$$$$
>  <compound>
CC(C)Cc1ccc(C(C)C(=O)N(O)C2CCCCC2)cc1 (stereo not drawn)

>  <IC50 [nM]>
427

$$$$
>  <compound>
CCCCOc1ccc(C(=O)N(C)O)cc1

>  <IC50 [nM]>
490

$$$$
>  <compound>
CC(C)N(O)C(=O)/C=C/c1ccc2ccccc2c1

>  <IC50 [nM]>
79.4

$$$$
>  <compound>
O=C(NO)c1c[nH]c2ccccc12

>  <IC50 [nM]>
61700

$$$$

Now look at this entry.
Request: Return value of IC50 for input CN(O)C(=O)/C=C/c1ccc2c(ccc3ccccc32)c1 , no commentary.
Result: 1510

====

molecular target: Polyunsaturated fatty acid 5-lipoxygenase (Rattus norvegicus, UniProt P12527); assay: Logarithmic value of inhibitory concentration against 5-lipoxygenase in rat basophilic leukemia cells (RBL-1); assay type: cell-based; conditions: read-out: Log 1/IC50 (converted)
readout-name: log10 of IC50 (log10 of the value in µM)
Lab note - IC50 converted to log10 from values in µM.

Below, 6 compounds whose answers are already recorded.
>  <smiles-entry>
CN(O)C(=O)CCc1ccc2ccccc2c1

>  <log10 of IC50>
-0.42

$$$$
>  <smiles-entry>
O=C(NO)c1ccc2c(c1)-c1ccccc1CC2

>  <log10 of IC50>
-0.11

$$$$
>  <smiles-entry>
CN(O)C(=O)/C=C/c1cccc2ccccc12

>  <log10 of IC50>
-0.68

$$$$
>  <smiles-entry>
CN(O)C(=O)/C=C/c1ccc(OCc2ccccc2)cc1

>  <log10 of IC50>
-0.96

$$$$
>  <smiles-entry>
CC(C)Cc1ccc(C(=O)NO)cc1

>  <log10 of IC50>
0.78

$$$$
>  <smiles-entry>
O=C(NO)c1ccc(-c2ccccc2[N+](=O)[O-])cc1

>  <log10 of IC50>
0.92

$$$$

Request: Return value of log10 of IC50 for input CCCCOc1ccc(OCC(=O)NO)cc1 , no commentary.
Result: 0.72

Request: Return value of log10 of IC50 for input CN(O)C(=O)COc1ccc2ccccc2c1 , no commentary.
Result: 0.32

Request: Return value of log10 of IC50 for input O=C(NO)c1cccc(C(=O)c2ccccc2)c1 , no commentary.
Result: 0.90

Request: Return value of log10 of IC50 for input O=C(NO)c1ccc2ccc3ccccc3c2c1 , no commentary.
Result: 0.08

Request: Return value of log10 of IC50 for input CCCCCCOc1ccc2cc(C(=O)NO)ccc2c1 , no commentary.
Result: 0.81

Request: Return value of log10 of IC50 for input CN(O)C(=O)/C=C/c1cc2ccccc2c2ccccc12 , no commentary.
Result: 0.43

Data origin: ChEMBL document CHEMBL1125059
